pIC50 values, listed per item
Test system: Human immunodeficiency virus 2
experimentalDetails: Inhibition of HIV-2 (CBL20) nediated cytotoxicity in CEM (human leukemia) cells.
testContext: Human immunodeficiency virus 2, CCRF-CEM
pIC50: −log10 of the molar value.
observable: pIC50

molecule="CC(C)CC[C@@H](O)[C@@H](C)[C@H]1CCC2C3C[C@H](OS(=O)(=O)O)C4C[C@@H](OS(=O)(=O)O)CC[C@]4(C)C3=CC[C@@]21C (some centres undefined)" observable=pIC50 result="< 3.79"
molecule="CC(C)CCC[C@@H](COS(=O)(=O)O)[C@H]1CCC2C3CC=C4[C@@H](O)[C@H](OS(=O)(=O)O)CC[C@]4(C)C3CC[C@@]21C (some centres undefined)" observable=pIC50 result="< 3.79"
molecule="C[C@H](CCC(=O)NC(CO)CS(=O)(=O)O)[C@H]1[C@@H](O)[C@H](O)[C@H]2[C@@H]3C[C@@H](O)[C@@]4(O)C[C@@H](O)CC[C@]4(C)[C@H]3CC[C@]12C (some centres undefined)" observable=pIC50 result="< 3.76"
molecule="CC(C)CCC[C@@H](COS(=O)(=O)O)[C@H]1CC[C@H]2[C@@H]3CCC4[C@H](O)[C@H](OS(=O)(=O)O)CC[C@]4(C)[C@H]3[C@@H](O)C[C@]12C (some centres undefined)" observable=pIC50 result="< 3.80"
molecule="CC(C)CCC[C@@H](COS(=O)(=O)O)[C@H]1CC[C@H]2[C@@H]3CCC4[C@H](O)[C@H](OS(=O)(=O)O)CC[C@]4(C)[C@H]3[C@@H](O)[C@@H](O)[C@]12C (some centres undefined)" observable=pIC50 result="< 3.82"
molecule="CC(C)C1(CC[C@@H](C)[C@H]2CC[C@@]3(C)C4C[C@H](OS(=O)(=O)O)C5C[C@H](OS(=O)(=O)O)[C@@H](OS(=O)(=O)O)C[C@]5(C)C4=CC[C@]23C)CC1C (some centres undefined)" observable=pIC50 result=4.29
molecule="CC(C)[C@H](CC[C@@H](C)[C@H]1C[C@H](OS(=O)(=O)[O-])[C@H]2[C@@H]3C[C@H](O)C4C[C@@H](O)CC[C@]4(C)[C@H]3CC[C@@]21C)OC1OCC(O)C(O)C1O.[Na+] (some centres undefined)" observable=pIC50 result="< 3.90"
molecule="C=C(C)CCC[C@@H](COS(=O)(=O)O)[C@H]1CC[C@H]2[C@@H]3CCC4[C@H](O)[C@H](OS(=O)(=O)O)CC[C@]4(C)[C@H]3CC[C@]12C (some centres undefined)" observable=pIC50 result="< 3.79"
molecule="CCC(C)(C)C(C)CC[C@@H](C)[C@H]1CC[C@H]2[C@@H]3C[C@H](OS(=O)(=O)O)C4C[C@H](OS(=O)(=O)O)[C@@H](OS(=O)(=O)O)C[C@]4(C)[C@H]3CC[C@]12C (some centres undefined)" observable=pIC50 result=4.03
molecule="CC(C)[C@H](CC[C@@H](C)[C@H]1C[C@H](OS(=O)(=O)[O-])[C@H]2[C@@H]3[C@H](O)[C@H](O)C4C[C@@H](O)CC[C@]4(C)[C@H]3CC[C@@]21C)OC1OCC(O)C(O)C1O.[Na+] (some centres undefined)" observable=pIC50 result=4.16
molecule="CC(C)CCC[C@@H](COS(=O)(=O)O)[C@H]1CCC2C3CC=C4C[C@H](O)[C@@H](OS(=O)(=O)O)C[C@]4(C)C3CC[C@@]21C (some centres undefined)" observable=pIC50 result="< 3.79"
molecule="CC(C)C(C)CC[C@@H](C)[C@H]1CC[C@H]2[C@@H]3C[C@H](OS(=O)(=O)O)C4C[C@H](OS(=O)(=O)O)[C@@H](OS(=O)(=O)O)C[C@]4(C)[C@H]3CC[C@]12C (some centres undefined)" observable=pIC50 result=4.25
molecule="COC1([C@@H]2C=C3[C@H](O)C[C@]4(O)C(CC[C@@]5(C)C4[C@@H](OS(=O)(=O)[O-])[C@H](O)[C@@H]5[C@H](C)/C=C/[C@H](CO)C(C)C)[C@@]3(C)CC2)OCC(O)C(O)C1O.[Na+] (some centres undefined)" observable=pIC50 result="< 4.19"
molecule="CC(C)C(CCOS(=O)(=O)[O-])CC[C@@H](C)[C@H]1[C@@H](O)[C@H](O)C2[C@]3(O)C[C@@H](O)[C@@]4(O)C[C@@H](O)CC[C@]4(C)C3CC[C@@]21C.[Na+] (some centres undefined)" observable=pIC50 result="< 3.79"
molecule=CC(C)CCC[C@@H](COS(=O)(=O)O)[C@H]1CC[C@H]2[C@@H]3CC[C@H]4C[C@H](OS(=O)(=O)O)CC[C@]4(C)[C@H]3CC[C@]12C observable=pIC50 result="< 3.81"
molecule="CC(=O)O[C@H](CCC(C)C)[C@@H](C)[C@H]1CCC2C3C[C@H](OS(=O)(=O)O)C4C[C@@H](OS(=O)(=O)O)CC[C@]4(C)C3=CC[C@@]21C (some centres undefined)" observable=pIC50 result="< 3.82"
molecule="CC(CC[C@@H](C)[C@H]1CC[C@H]2[C@@H]3C[C@H](OS(=O)(=O)O)C4C[C@H](OS(=O)(=O)O)[C@@H](OS(=O)(=O)O)C[C@]4(C)[C@H]3CC[C@]12C)C(C)(C)C (some centres undefined)" observable=pIC50 result=4.39
molecule=C=C(C)CCC[C@@H](COS(=O)(=O)O)[C@H]1CC[C@H]2[C@@H]3CC[C@]4(O)[C@H](O)[C@H](OS(=O)(=O)O)CC[C@]4(C)[C@H]3CC[C@]12C observable=pIC50 result="< 3.80"
molecule="CC(=O)O[C@@H]1C[C@H]2[C@@H]3C[C@H](OP(=O)([O-])OC4OC(CO)C(O)C(O)C4O)C4C[C@@H](OS(=O)(=O)[O-])CC[C@]4(C)[C@H]3CC[C@]2(C)[C@H]1[C@H](C)CCCC(C)C.[Na+].[Na+] (some centres undefined)" observable=pIC50 result="< 3.90"
